# assaySystem: L-lactate dehydrogenase (Plasmodium falciparum (isolate CDC / Honduras)) (UniProt Q27743)
# Sequence (Q27743 whole entry, looked up): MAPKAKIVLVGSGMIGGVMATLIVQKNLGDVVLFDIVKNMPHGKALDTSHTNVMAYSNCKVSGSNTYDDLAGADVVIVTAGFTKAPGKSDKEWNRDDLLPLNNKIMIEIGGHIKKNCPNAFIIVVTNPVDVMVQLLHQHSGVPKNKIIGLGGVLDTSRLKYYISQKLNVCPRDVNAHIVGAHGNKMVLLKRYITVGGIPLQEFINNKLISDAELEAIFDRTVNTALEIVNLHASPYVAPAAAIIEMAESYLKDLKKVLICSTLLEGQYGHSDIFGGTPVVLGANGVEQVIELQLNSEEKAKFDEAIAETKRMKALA
# assaySummary: PfLDH activity inhibition – cell lysate, 3D7 strain, counter-screen for P. falciparum growth inhibition project (AID 2304);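 further: 0% = vehicle and 100% = reference inhibitor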
# experimentalConditions: P. falciparum 3D7 crude extract, LDH APAD/NBT absorbance; at 2 µM; hits give high values
valueKind: inhibition (%)
Answers are plain numbers, in %.

Illustrative cases are given below, each with its answer.
> print(dat)
                                    compound                               assaysystem   valuekind  recordedresult
 1  COc1ccc(S(=O)(=O)N(CCCN2CCN(C)CC2)Cc2csc(-c3ccc(CNCc4ccccc4)cc3)n2)cc1  L-lactate dehydrogenase (Plasmodium falciparum (isolate CDC / Honduras)) (UniProt Q27743)  inhibition               6
 2  CCOC(=O)c1cccc(N/C(N)=N/c2nc(C)cc(NCCc3ccccc3)n2)c1  L-lactate dehydrogenase (Plasmodium falciparum (isolate CDC / Honduras)) (UniProt Q27743)  inhibition              -6
 3  c1ccc(CNCc2cccc(-c3ccc(-c4nc5ccccc5[nH]4)cc3)c2)cc1  L-lactate dehydrogenase (Plasmodium falciparum (isolate CDC / Honduras)) (UniProt Q27743)  inhibition              -5
 4  Cc1cccc2c(/C=C/C(=O)NC3CCC(CCN4CCc5ccc(C#N)cc5CC4)CC3)c[nH]c12 (stereo not drawn)  L-lactate dehydrogenase (Plasmodium falciparum (isolate CDC / Honduras)) (UniProt Q27743)  inhibition              -1
 5  COc1ccc(S(=O)(=O)NC2CCN(c3ccc(C(F)(F)F)cc3NC(=O)OCC(C)C)CC2)cc1  L-lactate dehydrogenase (Plasmodium falciparum (isolate CDC / Honduras)) (UniProt Q27743)  inhibition               3
 6  O=C(Nc1ccc(Cl)c(C(F)(F)F)c1)c1ccc(C(=O)Nc2ccc(Cl)c(C(F)(F)F)c2)cc1  L-lactate dehydrogenase (Plasmodium falciparum (isolate CDC / Honduras)) (UniProt Q27743)  inhibition              -2
 7  O=C(c1ccc(Br)o1)N1N=C(c2cccs2)CC1c1ccc(Br)cc1 (stereo not drawn)  L-lactate dehydrogenase (Plasmodium falciparum (isolate CDC / Honduras)) (UniProt Q27743)  inhibition              -4
 8  c1ccc(-c2nc(Nc3nc4ccccc4[nH]3)[nH]c2-c2ccccc2)cc1  L-lactate dehydrogenase (Plasmodium falciparum (isolate CDC / Honduras)) (UniProt Q27743)  inhibition              -5
 9  Fc1ccc2nc(-c3cccc(-c4ccc(CNCc5ccccc5)cc4)c3)[nH]c2c1  L-lactate dehydrogenase (Plasmodium falciparum (isolate CDC / Honduras)) (UniProt Q27743)  inhibition              -1
10  C[C@@H](CC1CCCCC1)NCc1cccc(NS(=O)(=O)c2ccc(O)c(-c3ccno3)c2)c1  L-lactate dehydrogenase (Plasmodium falciparum (isolate CDC / Honduras)) (UniProt Q27743)  inhibition              -6

Batch: inhibition for all items listed.
1. Nc1nc(N)c2cc(NS(=O)(=O)c3ccc(-c4ccccc4)cc3)ccc2n1
2. COc1ccccc1CCNc1nc(C)cc(N[C@@H](CC(C)C)C(=O)NCc2cccc(F)c2)n1
3. CCOC(=O)c1cc2c(CCN3C(=O)c4ccccc4C3=O)cn(C)c2cc1-c1ccncc1
4. COc1ccc2nc(Nc3nc(-c4ccccn4)cs3)sc2c1
5. CN1CCC(NCc2cccc(-c3nn(C)c4nc(NC5CCCC5)ncc34)c2)CC1
6. COc1ccc(N2CCN(CCCCNC(=O)c3ccc(NC(=O)c4ccc(Cl)cc4)cc3)CC2)c(OC)c1

Response:
1. -3
2. -3
3. 2
4. 4
5. -2
6. 6

Count: 8. Required value per item: inhibition.
1. O=C(/C=C/c1ccc(Cl)c(Cl)c1)NCCCCCN1CCCC(CCCNC(=O)Nc2ccc(C(F)(F)F)cc2)C1 (stereo not drawn)
2. O=C(Cc1ccccc1)NC(CCN1CCC(NC(=O)c2ccc(Cl)cc2)CC1)c1ccc(Cl)c(Cl)c1 (stereo not drawn)
3. COc1ccccc1Cc1c(C)nc2nc(N)nc(N)c2c1C
4. COc1cc(F)c2nccc([C@@H](O)CN3CCC(NCc4ccc5c(n4)NC(=O)CS5)CC3)c2c1
5. CCN(CC)CCCCNc1cc(-c2[nH]c(-c3c(Cl)cccc3Cl)nc2-c2ccc3cc(OC)ccc3c2)ccn1
6. CCCCCCCCCN1CC[C@@H](CCCc2ccnc3ccc(O)cc23)[C@@H](CC)C1
7. CC(C)N1CCC(N(Cc2ccc(-c3ccc(C(F)(F)F)cc3)cc2)C(=O)Cn2c(CCc3cccc(F)c3F)cc(=O)c3ccccc32)CC1
8. COc1ccc(C2CCN(CCCCNC(=O)c3ccc(NC(=O)c4ccc(Cl)cc4)cc3)CC2)c(C)c1

Response:
-4
-2
-3
-4
-5
-3
-6
2
